Reference source: patent US12528864

# system_name: T1, human CD96v2 expressed on cells (CHO cells; transiently transfected HEK cells) (human, UniProt P40200-2 22-569)
# T1 construct: whole, on cells; the cell is named under assay; also called CHO-huCD96; hCD96v2
# T1 sequence (looked up): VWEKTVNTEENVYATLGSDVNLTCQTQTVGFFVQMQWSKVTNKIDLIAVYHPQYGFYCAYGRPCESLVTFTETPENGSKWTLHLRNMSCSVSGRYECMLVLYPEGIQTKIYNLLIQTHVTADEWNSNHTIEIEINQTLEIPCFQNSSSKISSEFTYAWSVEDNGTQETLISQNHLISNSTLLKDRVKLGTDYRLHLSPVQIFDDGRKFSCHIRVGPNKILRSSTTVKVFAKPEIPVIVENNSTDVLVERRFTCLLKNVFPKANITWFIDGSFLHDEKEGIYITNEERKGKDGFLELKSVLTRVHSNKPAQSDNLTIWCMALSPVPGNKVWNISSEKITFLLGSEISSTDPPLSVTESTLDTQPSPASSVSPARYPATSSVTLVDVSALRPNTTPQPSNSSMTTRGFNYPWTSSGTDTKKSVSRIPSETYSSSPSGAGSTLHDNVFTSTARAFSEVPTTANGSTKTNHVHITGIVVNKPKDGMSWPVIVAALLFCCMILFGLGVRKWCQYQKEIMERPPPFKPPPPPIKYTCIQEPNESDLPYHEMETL
# assay_comment: flow cytometry, inhibition of human CD155-Fc-AF647 binding to CHO cells expressing human CD96v2; competitor CD155-Fc
reported_property: IC50 (nM)

# binder, reported_property, measurement_unit, val
measured = [
    ("42Y073-1A01-191 (antibody, V domains shown, Fully human antibody) VH: QVQLVQSGAEVKKPGASVKVSCKASGYTFTKYRMHWVRQAPGQGLEWMGIINPQGGSTSYAQKFQGRVTMTRDTSTSTVYMELSSLRSEDTAVYYCARETAYYTTKGNWFDPWGQGTLVTVSA VL: DIQMTQSPSSLSASVGDRVTITCRASQSISSYLNWYQQKPGKAPKLLIYAASSLQSGVPSRFSGSGSGTDFTLTISSLQPEDFATYYCQQSLYPPRTFGGGTKVEIK", "IC50", "nM", 0.03),
    ("42Y073-1A01-85 (antibody, V domains shown, Fully human antibody) VH: QVQLVQSGAEVKKPGASVKVSCKASGYTFTSYPMHWVRQAPGQGLEWMGIINPSGGFTSYAQKFQGRVTMTRDTSTSTVYMELSSLRSEDTAVYYCARETAYYTTKGNWFDPWGQGTLVTVSA VL: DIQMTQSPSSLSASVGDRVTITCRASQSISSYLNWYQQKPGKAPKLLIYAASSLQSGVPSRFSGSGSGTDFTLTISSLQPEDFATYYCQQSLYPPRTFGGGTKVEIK", "IC50", "nM", 0.03),
    ("42Y073-1A01-97 (antibody, V domains shown, Fully human antibody) VH: QVQLVQSGAEVKKPGASVKVSCKASGYTFTRAAMHWVRQAPGQGLEWMGIINPAGGYTSYAQKFQGRVTMTRDTSTSTVYMELSSLRSEDTAVYYCARETAYYTTKGNWFDPWGQGTLVTVSS VL: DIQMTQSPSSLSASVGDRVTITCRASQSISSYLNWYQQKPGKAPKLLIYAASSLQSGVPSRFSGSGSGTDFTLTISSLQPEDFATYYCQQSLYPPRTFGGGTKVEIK", "IC50", "nM", 0.03),
    ("42Y073-86F04-5 (antibody, V domains shown, Fully human antibody) VH: QVQLVQSGAEVKKPGSSVKVSCKASGGTFSSHAISWVRQAPGQGLEWMGGIIPIFGRGKYAQKFQGRVTITADESTSTAYMELSSLRSEDTAVYYCARLLGESGMDVWGQGTTVTVSS VL: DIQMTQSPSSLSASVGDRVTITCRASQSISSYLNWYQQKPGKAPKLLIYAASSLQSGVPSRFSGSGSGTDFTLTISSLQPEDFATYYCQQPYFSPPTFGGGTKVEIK", "IC50", "nM", 0.38),
    ("42Y073-86F04-88 (antibody, V domains shown, Fully human antibody) VH: QVQLVQSGAEVKKPGSSVKVSCKASGGTFSSSAISWVRQAPGQGLEWMGGIIPIFGRANYAQKFQGRVTITADESTSTAYMELSSLRSEDTAVYYCARLLGESGMDVWGQGTTVTVSS VL: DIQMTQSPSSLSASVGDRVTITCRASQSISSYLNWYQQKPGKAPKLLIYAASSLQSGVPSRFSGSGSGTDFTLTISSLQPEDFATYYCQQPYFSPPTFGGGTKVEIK", "IC50", "nM", 0.21),
    ("42Y073-86F08-8 (antibody, V domains shown, Fully human antibody; also called 42Y073-88F08-8) VH: QVQLVQSGAEVKKPGSSVKVSCKASGGTFWLYAISWVRQAPGQGLEWMGGIIPQLGTANYAQKFQGRVTITADESTSTAYMELSSLRSEDTAVYYCARGAGYYGDKDPMDVWGQGTTVTVSS VL: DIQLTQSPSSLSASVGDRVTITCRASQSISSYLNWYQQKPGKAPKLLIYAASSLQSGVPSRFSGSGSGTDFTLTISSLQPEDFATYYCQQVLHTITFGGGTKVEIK", "IC50", "nM", 0.93),
    ("42Y073-86F08-17 (antibody, V domains shown, Fully human antibody; also called 42Y073-88F08-17) VH: QVQLVQSGAEVKKPGSSVKVSCKASGGTFREYAISWVRQAPGQGLEWMGGIIPVFGTANYAQKFQGRVTITADESTSTAYMELSSLRSEDTAVYYCARGAGYYGDKDPMDVWGQGTTVTVSS VL: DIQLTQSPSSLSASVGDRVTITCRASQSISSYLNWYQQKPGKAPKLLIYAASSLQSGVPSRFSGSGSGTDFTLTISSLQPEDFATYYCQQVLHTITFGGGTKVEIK", "IC50", "nM", 0.52),
    ("42Y073-86F08-4 (antibody, V domains shown, Fully human antibody) VH: QVQLVQSGAEVKKPGSSVKVSCKASGGTFSEYAIHWVRQAPGQGLEWMGNIIPIFGTAGYAQKFQGRVTITADESTSTAYMELSSLRSEDTAVYYCARGAGYYGDKDPMDVWGQGTTVTVSS VL: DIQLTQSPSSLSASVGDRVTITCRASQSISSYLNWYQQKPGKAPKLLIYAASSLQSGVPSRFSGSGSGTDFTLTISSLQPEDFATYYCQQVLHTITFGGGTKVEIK", "IC50", "nM", 0.38),
    ("42Y073-1A01-100 (antibody, V domains shown, Fully human antibody) VH: QVQLVQSGAEVKKPGASVKVSCKASGYTFTTYRMHWVRQAPGQGLEWMGIINPSGGLTQYAQKFQGRVTMTRDTSTSTVYMELSSLRSEDTAVYYCARETAYYTTKGNWFDPWGQGTLVTVSS VL: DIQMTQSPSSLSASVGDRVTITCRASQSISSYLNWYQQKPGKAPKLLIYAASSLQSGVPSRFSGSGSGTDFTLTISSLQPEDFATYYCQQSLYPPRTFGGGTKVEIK", "IC50", "nM", 0.06),
    ("42Y073-86F04-18 (antibody, V domains shown, Fully human antibody) VH: QVQLVQSGAEVKKPGSSVKVSCKASGGTFSSRAISWVRQAPGQGLEWMGGIIPIMGTARYAQKFQGRVTITADESTSTAYMELSSLRSEDTAVYYCARLLGESGMDVWGQGTTVTVSS VL: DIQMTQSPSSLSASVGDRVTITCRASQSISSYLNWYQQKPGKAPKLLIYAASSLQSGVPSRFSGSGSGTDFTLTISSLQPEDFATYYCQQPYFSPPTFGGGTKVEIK", "IC50", "nM", 0.59),
]
